Reference source: patent US9540343B2

experiment: in vitro; details: human, uninfected MT-4 cells, CC50 (nM), same protocol as Test A, CellTiter-Glo
Attribute measured: CC50 at 5 days (nM)
Give bare numbers, in nM.

Take a look at these entries with their results.
NC(=O)c1cccc(-c2cccnc2[C@H](Cc2cc(F)cc(F)c2)NC(=O)Cn2ccc3c(F)cc(F)cc32)c1 [Example 546C] ... 16800
CCOCc1cn(CC(=O)N[C@@H](Cc2cc(F)cc(F)c2)c2ncccc2-c2ccc(F)c(C(N)=O)c2)nc1C(F)(F)F ... 29300
O=C(Cn1nc(C(F)F)c2c1C(F)(F)C1CC21)N[C@@H](Cc1cc(F)cc(F)c1)c1ncccc1-c1ccc(OC(F)(F)F)cc1 (stereo partly shown) ... 14000

Dear colleague, could you please provide CC50 at 5 days for the compounds listed below?
1. NC(=O)c1cc(-c2cncnc2[C@H](Cc2cc(F)cc(F)c2)NC(=O)Cn2nc(C(F)(F)F)c3c2CC2CC32)ccc1F (stereo partly shown) [Example 136D]
2. CCOC(=O)N1CCCC1C(=O)N[C@@H](Cc1cc(F)cc(F)c1)c1ncccc1-c1ccc(F)c(C(N)=O)c1 (stereo partly shown)
3. Cc1cc2ncn(CC(=O)NC(Cc3cc(F)cc(F)c3)c3nccnc3-c3ccc(Cl)cc3)c2cc1C (stereo not shown)
4. O=C1Cc2cc(-c3cccnc3[C@H](Cc3cc(F)cc(F)c3)NC(=O)Cn3nc(C(F)F)c4c3C(F)(F)CCC4(F)F)ccc2N1 [Example 548D]
5. CC(C)(C)OC(=O)Nc1ccc2[nH]cc(CC(=O)N[C@@H](Cc3cc(F)cc(F)c3)c3ncccc3-c3cccc(C(N)=O)c3)c2c1 [Example 496B]

a:
1: 27800; 2: 23500; 3: 20400; 4: 10100; 5: 18400

###

Consider the following molecules; for each one, report its CC50 at 5 days.
assay: in vitro; conditions: human, uninfected MT-4 cells, CC50 (nM), same protocol as Test A, CellTiter-Glo
Answers are plain numbers, in nM.

CNC(=O)c1nc2c(C)cccc2n1CC(=O)N[C@@H](Cc1cc(F)cc(F)c1)c1ncccc1-c1ccc(F)c(C(N)=O)c1 [Example 523] ... 48800
CC(C)(C)OC(=O)N1CCc2c(c(C(F)(F)F)nn2CC(=O)N[C@@H](Cc2cc(F)cc(F)c2)c2ncccc2-c2ccc(F)c(C(N)=O)c2)C1 [Example 274] ... 11000
Cc1ccc(-c2cccnc2[C@H](Cc2cc(F)cc(F)c2)NC(=O)Cc2c[nH]c3ccc(F)cc23)cc1 [Example 69] ... 6690
COc1ccc(-c2cccnc2[C@@H](Cc2ccccc2)NC(=O)Cn2nc(C(F)(F)F)c3c2CCCC3)c(C)c1 [Example 18] ... 14600
Cn1ncc2ccc(-c3cccnc3[C@H](Cc3cc(F)cc(F)c3)NC(=O)Cn3nc(C(F)F)c4c3C(F)(F)C3CC43)cc21 (some centres unmarked) [Example 73] ... 9790

Hey, can you go through the list below and give me CC50 at 5 days for every item?
1. O=C(Cc1c[nH]c2ccc(F)cc12)N[C@@H](Cc1cc(F)cc(F)c1)c1ncccc1-c1ccsc1 [Example 72]
2. CC(C)Cc1ccc(-c2cccnc2[C@H](Cc2cc(F)cc(F)c2)NC(=O)Cc2c[nH]c3ccc(F)cc23)cc1 [Example 103]
3. O=C(Cc1c[nH]c2ccc(O)cc12)N[C@@H](Cc1cc(F)cc(F)c1)c1ncccc1C#CC1CC1 [Example 53]
4. CS(=O)(=O)c1cccc(-c2cccnc2[C@H](Cc2cc(F)cc(F)c2)NC(=O)Cn2nc(C(F)(F)F)c3c2CCCC3)c1 [Example 57B]
5. NC(=O)c1cccc(-c2cccnc2[C@H](Cc2cc(F)cc(Cl)c2)NC(=O)Cc2c[nH]c3ccc(O)cc23)c1 [Example 245F]

a:
1: 16200; 2: 5170; 3: 28300; 4: 13300; 5: 30300

Please supply CC50 at 5 days for each of the following items, keeping them in order.
1. NC(=O)c1cc(-c2cccnc2[C@H](Cc2cc(F)cc(F)c2)NC(=O)COc2ccccc2)ccc1F [Example 164]
2. Cc1cc2cn(CC(=O)N[C@@H](Cc3cc(F)cc(F)c3)c3ncccc3-c3ccc(F)c(C(N)=O)c3)nc2cc1C [Example 583]

a:
29900
23200
